// data source = patent US20240116985A1

Target Entity: full-length B-Catenin (Uniprot ID P35222) (Homo sapiens, UniProt P35222)
Construct: 65 nM full-length B-Catenin (Uniprot ID P35222)
Procedure Summary: Alphascreen binding assay (beta-catenin / biotin-TCF4 10-53)
Quantity Name: EC50 (µM)

Molecule: CC(=O)N1CCC[C@]12CC=CCCCC1(CCCC=CCCCCCC[C@@](C)(C(=O)N[C@@H](Cc3ccccc3)C(=O)N[C@@H](Cc3c[nH]c4ccccc34)C(=O)N[C@@H](CCC(N)=O)C(N)=O)NC(=O)[C@H](C(C)C)NC(=O)[C@H](Cc3ccccc3)NC(=O)[C@H](C)NC(=O)[C@H](C)NC(=O)[C@H](CC(=O)O)NC(=O)[C@H](CC(=O)O)NC1=O)NC(=O)[C@H](C)NC(=O)[C@H](CCC(=O)O)NC2=O (stereo partly drawn) [I-279]
Target Entity: full-length B-Catenin (Uniprot ID P35222) (Homo sapiens, UniProt P35222)
Value Observed: 4.96
//
Molecule: CC(=O)N[C@@H](Cc1ccccc1)C(=O)N[C@@H](CC(=O)O)C(=O)N[C@@H](C)C(=O)N[C@]1(C)CCCCCCC=CCOC(=O)N2CC[C@@](C(=O)N[C@@H](Cc3ccccc3)C(=O)N[C@@H](Cc3c[nH]c4ccccc34)C(=O)N[C@@H](CCC(N)=O)C(N)=O)(C2)NC(=O)[C@H](C(C)C)NC(=O)[C@H](Cc2ccccc2)NC(=O)[C@H](C)NC(=O)[C@H](C)NC(=O)[C@H](CCc2ccccc2)NC(=O)[C@H](CC(=O)O)NC1=O [I-97]
Target Entity: full-length B-Catenin (Uniprot ID P35222) (Homo sapiens, UniProt P35222)
Value Observed: 7.01
//
Molecule: CC(=O)N1CCC[C@]12CC=CCCCC1(CCCC=CCCCCCC[C@@](C)(C(=O)N[C@@H](Cc3ccc(C(F)(F)F)cc3)C(=O)N[C@@H](Cc3c[nH]c4ccccc34)C(=O)N[C@@H](CCC(N)=O)C(N)=O)NC(=O)[C@H](C(C)C)NC(=O)[C@H](Cc3ccccc3)NC(=O)[C@H](C)NC(=O)[C@H](C)NC(=O)[C@H](CC(=O)O)NC(=O)[C@H](CC(=O)O)NC1=O)NC(=O)[C@H](C)NC(=O)[C@H](CC(=O)O)NC2=O (stereo partly drawn) [I-254]
Target Entity: full-length B-Catenin (Uniprot ID P35222) (Homo sapiens, UniProt P35222)
Value Observed: 1.96

----------
Target Entity: full-length beta-Catenin (Uniprot ID P35222) (Homo sapiens)
Construct: 10 nM full-length beta-Catenin (Uniprot ID P35222)
Procedure Summary: Fluorescence polarization IC50 (beta-catenin / 5FAM-TCF4 10-53 competition)
Assay type: binding
Condition: fluorescence polarization; read-out: beta-Catenin FP IC50
Quantity Name: IC50

Molecule: CC(=O)N1CCC[C@]12CC=CCCCC1(CCCC=CCCCCCC[C@@](C)(C(=O)N[C@@H](Cc3ccccc3)C(=O)N[C@@H](Cc3csc4ccccc34)C(=O)N[C@@H](CCC(N)=O)C(=O)N[C@H](C)C(N)=O)NC(=O)[C@H](CC(N)=O)NC(=O)[C@H](Cc3ccccc3)NC(=O)[C@H](C)NC(=O)[C@H](C)NC(=O)[C@H](CCC(=O)O)NC(=O)[C@H](CC(=O)O)NC1=O)NC(=O)[C@H](CC(C)C)NC(=O)[C@H](CC(=O)O)NC2=O (stereo partly drawn)
Value Observed: 34 nM

Molecule: CC(=O)N1CCC[C@]12CC=CCCCC1(CCCC=CCCCOC(=O)N3CC[C@@](C(=O)N[C@@H](Cc4ccccc4Cl)C(=O)N[C@@H](Cc4csc5ccccc45)C(=O)N[C@@H](CCC(N)=O)C(N)=O)(C3)NC(=O)[C@H](Cc3ccccc3)NC(=O)[C@H](Cc3ccccc3)NC(=O)[C@H](C)NC(=O)[C@H](C)NC(=O)[C@H](Cc3ccccc3C(=O)O)NC(=O)[C@H](CC(=O)O)NC1=O)NC(=O)[C@H](CC(C)(C)C)NC(=O)[C@H](CC(=O)O)NC2=O (stereo partly drawn)
Value Observed: 36 nM

Molecule: CC(=O)N1CCC[C@]12CC=CCCCC1(CCCC=CCCCOC(=O)N3CC[C@@](C(=O)N[C@@H](Cc4ccccc4)C(=O)N[C@@H](Cc4csc5ccccc45)C(=O)N[C@@H](CCC(N)=O)C(N)=O)(C3)NC(=O)[C@H](CC(C)C)NC(=O)[C@H](Cc3ccccc3)NC(=O)[C@H](C)NC(=O)[C@H](CCCCNC(C)C)NC(=O)[C@H]([C@@H](C)O)NC(=O)[C@H](CC(=O)O)NC1=O)NC(=O)[C@H](CO)NC(=O)[C@H](CC(N)=O)NC2=O (stereo partly drawn)
Value Observed: 3420 nM

----------
Target Entity: full-length beta-Catenin (Uniprot ID P35222) (Homo sapiens)
Construct: 10 nM full-length beta-Catenin (Uniprot ID P35222)
Sequence (P35222 1-781): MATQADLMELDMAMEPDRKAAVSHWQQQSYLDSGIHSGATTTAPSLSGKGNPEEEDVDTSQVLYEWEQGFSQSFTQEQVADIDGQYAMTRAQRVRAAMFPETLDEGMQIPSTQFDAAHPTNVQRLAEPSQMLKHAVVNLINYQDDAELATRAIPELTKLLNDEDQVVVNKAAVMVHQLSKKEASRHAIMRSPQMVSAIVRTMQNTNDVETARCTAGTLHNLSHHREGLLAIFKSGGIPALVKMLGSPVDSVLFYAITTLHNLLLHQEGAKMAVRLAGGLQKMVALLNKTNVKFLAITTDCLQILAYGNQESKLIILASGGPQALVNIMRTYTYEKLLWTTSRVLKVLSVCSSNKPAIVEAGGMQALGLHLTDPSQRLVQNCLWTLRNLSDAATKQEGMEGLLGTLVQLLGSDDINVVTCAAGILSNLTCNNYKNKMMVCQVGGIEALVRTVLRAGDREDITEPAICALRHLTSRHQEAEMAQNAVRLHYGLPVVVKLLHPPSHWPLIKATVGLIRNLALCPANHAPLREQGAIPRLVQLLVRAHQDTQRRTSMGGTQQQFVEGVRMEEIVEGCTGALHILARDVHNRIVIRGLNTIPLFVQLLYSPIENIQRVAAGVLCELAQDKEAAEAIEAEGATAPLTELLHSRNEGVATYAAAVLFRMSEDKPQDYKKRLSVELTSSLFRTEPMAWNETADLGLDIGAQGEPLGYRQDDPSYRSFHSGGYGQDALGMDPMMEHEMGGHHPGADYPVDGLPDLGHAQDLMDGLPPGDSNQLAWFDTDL
Procedure Summary: Fluorescence polarization IC50 (beta-catenin / 5FAM-TCF4 10-53 competition)
Type: binding
Condition: read-out: beta-Catenin FP IC50
pIC50: −log10 of the molar value.
Quantity Name: pIC50

Molecule: COc1cccc(C[C@@H]2NC(=O)[C@H](C)NC(=O)[C@H](C)NC(=O)[C@H](CC(=O)O)NC(=O)[C@H](CC(=O)O)NC(=O)C3(CCCC=CCCCOC(=O)N4CC[C@@](C(=O)N[C@@H](Cc5ccccc5)C(=O)N[C@@H](Cc5csc6ccccc56)C(=O)N[C@@H](CCC(N)=O)C(N)=O)(C4)NC(=O)[C@H](CC(C)C)NC2=O)CCCC=CC[C@]2(CCCN2C(C)=O)C(=O)N[C@@H](CC(=O)O)C(=O)N[C@@H](CC(C)(C)C)C(=O)N3)c1 (some centres unmarked) [I-1127]
Target Entity: full-length beta-Catenin (Uniprot ID P35222) (Homo sapiens)
Value Observed: 7.74
//
Molecule: CC(=O)N1CCC[C@]12CC=CCCCC1(CCCC=CCCCOC(=O)N3CC[C@@](C(=O)N[C@@H](Cc4ccsc4)C(=O)N[C@@H](Cc4csc5ccccc45)C(=O)N[C@@H](Cc4c[nH]cn4)C(N)=O)(C3)NC(=O)[C@H](CC(C)C)NC(=O)[C@H](Cc3ccccc3)NC(=O)[C@H](C)NC(=O)[C@H](C)NC(=O)[C@H](CC(=O)O)NC(=O)[C@H](CC(=O)O)NC1=O)NC(=O)[C@H](CC(C)(C)C)NC(=O)[C@H](CC(=O)O)NC2=O (some centres unmarked) [I-802]
Target Entity: full-length beta-Catenin (Uniprot ID P35222) (Homo sapiens)
Value Observed: 8.22
//
Molecule: CC(=O)N1CCC[C@]12CC=CCCCC1(CCCC=CCCCOC(=O)N3CC[C@@](C(=O)N[C@@H](Cc4ccccc4Cl)C(=O)N[C@@H](Cc4csc5ccccc45)C(=O)N[C@@H](CO)C(N)=O)(C3)NC(=O)[C@H](CO)NC(=O)[C@H](Cc3ccccc3)NC(=O)[C@H](C)NC(=O)[C@H](C)NC(=O)[C@H](CC(=O)O)NC(=O)[C@H](CC(=O)O)NC1=O)NC(=O)[C@H](Cc1ccccc1)NC(=O)[C@H](CC(=O)O)NC2=O (some centres unmarked) [I-1051]
Target Entity: full-length beta-Catenin (Uniprot ID P35222) (Homo sapiens)
Value Observed: 7.85
//
Molecule: CC(=O)N1CCC[C@]12CC=CCCCC1(CCCC=CCCCOC(=O)N3CC[C@@](C(=O)N[C@@H](Cc4cccs4)C(=O)N[C@@H](Cc4csc5ccccc45)C(=O)N[C@@H](Cc4c[nH]cn4)C(N)=O)(C3)NC(=O)[C@H](CC(N)=O)NC(=O)[C@H](Cc3ccccc3)NC(=O)[C@H](C)NC(=O)[C@H](C)NC(=O)[C@H](CC(=O)O)NC(=O)[C@H](CC(=O)O)NC1=O)NC(=O)[C@H](CC(C)(C)C)NC(=O)[C@H](CC(=O)O)NC2=O (some centres unmarked) [I-779]
Target Entity: full-length beta-Catenin (Uniprot ID P35222) (Homo sapiens)
Value Observed: 8.30
//
Molecule: CC(=O)N1CCC[C@]12CC=CCCCC1(CCCC=CCCCCOC(=O)N3CC[C@@](C(=O)N[C@@H](Cc4ccsc4)C(=O)N[C@@H](Cc4csc5ccccc45)C(=O)N[C@@H](Cc4c[nH]cn4)C(N)=O)(C3)NC(=O)[C@H](CC(N)=O)NC(=O)[C@H](Cc3ccccc3)NC(=O)[C@H](C)NC(=O)[C@H](C)NC(=O)[C@H](CC(=O)O)NC(=O)[C@H](CC(=O)O)NC1=O)NC(=O)[C@H](CC(C)(C)C)NC(=O)[C@H](CC(=O)O)NC2=O (some centres unmarked) [I-776]
Target Entity: full-length beta-Catenin (Uniprot ID P35222) (Homo sapiens)
Value Observed: 8.30
